Attribution: paper PMC4827027

Quick list: MIC per entry.
# Tested on: MRSA (S. aureus ATCC 43300)

>  <compound>
COc1cc(OC)c2c(c1)cc(O)c1c(=O)cc(C)oc12

>  <MIC>
≥ 100 µg/mL

$$$$
>  <compound>
CN[C@H](CC(C)C)C(=O)N[C@H]1C(=O)N[C@@H](CC(N)=O)C(=O)N[C@H]2C(=O)N[C@H]3C(=O)N[C@H](C(=O)N[C@H](C(=O)O)c4cc(O)cc(O)c4-c4cc3ccc4O)[C@H](O)c3ccc(c(Cl)c3)Oc3cc2cc(c3O[C@@H]2O[C@H](CO)[C@@H](O)[C@H](O)[C@H]2O[C@H]2C[C@](C)(N)[C@H](O)[C@H](C)O2)Oc2ccc(cc2Cl)[C@H]1O [Vancomycin, reference compound]

>  <MIC>
0.53 µg/mL

$$$$
>  <compound>
COc1cc(OC)c2c(O)c3c(=O)cc(C)oc3c(-c3c(OC)cc4cc5oc(C)cc(=O)c5c(O)c4c3OC)c2c1

>  <MIC>
34.1 µg/mL

$$$$
